Assign cytotoxicity at 10 µM to each entry below.
protocol: Toxicity liver stage against HepG2, at 10uM
Format: cell-based
Parameters: test concentration 10 uM, cell line HepG2-A16-CD81EGFP
test conditions: human, HepG2-A16-CD81EGFP cells; read-out: INHIBITION
Number in %, nothing else.

Documented cytotoxicity at 10 µM of Cc1ccc(C(=O)OC(C)Cn2cccn2)c(=O)[nH]1 (configuration not stated) : 3.35

Value of measured cytotoxicity at 10 µM for the entry CNS(=O)(=O)c1ccccc1N1CCN(C(C)C(N)=O)CC1 (configuration not stated) : 4.87

In plain terms, Cc1cnn(CCNCc2ccccc2OCc2cccnc2)c1 has a documented cytotoxicity at 10 µM of 3.8

Recorded cytotoxicity at 10 µM (compound O=C(N[C@@H]1CNCCC[C@H]1O)c1ccc(OCCN2CCCC2)cc1 ): -0.155

The compound Cc1cc(C)cc(C2(C(=O)N3CCCC(n4cncn4)C3)CC2)c1 (configuration not stated) showed cytotoxicity at 10 µM equal to -3

The compound listed as O=C(Cn1ccnc1)N(CCO)CCSc1ccc(Cl)cc1 has a reported cytotoxicity at 10 µM of 4.38

cytotoxicity at 10 µM measured on c1ccc(COCC2CNCc3nccn3C2)nc1 (configuration not stated) = 14.4

Lab book: cytotoxicity at 10 µM of O=c1oc(-c2ccc(F)cc2)nn1CCc1ccncc1 noted as -3.57

Note to self: cytotoxicity at 10 µM recorded for COCCN1CCCC2(CCN(Cc3noc(C4CCCC4)n3)C2)C1=O (configuration not stated) was 3.96

According to the records, this compound CN1CCN(c2nccc(-c3cncnc3C3CCCCC3)n2)CC1 displays cytotoxicity at 10 µM of -4.33

Item: COc1ccc(-c2n[nH]cc2C2SCC(=O)Nc3[nH]ncc32)cc1 (configuration not stated) | cytotoxicity at 10 µM: -1.33

Documented cytotoxicity at 10 µM of O=C(CCc1ccccc1Cl)NS(=O)(=O)c1ccc2c(c1)OCCO2 : -6.69

###

Could you please report measured cytotoxicity at 10 µM for the items listed next?
protocol: Toxicity liver stage against HepG2, at 10uM
Type: cell-based
Set-up: test concentration 10 uM, cell line HepG2-A16-CD81EGFP
test conditions: human, HepG2-A16-CD81EGFP cells; read-out: INHIBITION
Give just the numeric value; % need not be written.

Value of cytotoxicity at 10 µM reported for the compound CN1CCC(c2cccc(-c3ccc(C(=O)O)cc3)n2)CC1 is -0.358

// cytotoxicity at 10 µM lookup, compound = CCn1cnnc1CNC(=O)CCC(=O)c1ccc2c(c1)OCCO2 , result: -3.59

response.value for CC(C)c1nc(CCn2cncn2)n(-c2ccc3c(c2)OCCO3)n1 (field: cytotoxicity at 10 µM) = 6.52

Lookup result for COC(=O)c1occc1Cn1cc(Br)cn1 ; measured cytotoxicity at 10 µM: -5.63

So, CS(=O)(=O)N1CC[C@H]2O[C@@H](C(=O)NCc3ccco3)CC[C@H]21 ? Its cytotoxicity at 10 µM was 4.23

Lab note: measured cytotoxicity at 10 µM of CNC(=O)C(C)CN(C)C(=O)Nc1cc(F)cc(Br)c1 (stereo unspecified) was 4.25

###

protocol: Toxicity liver stage against HepG2, at 10uM
Format: cell-based
Set-up: test concentration 10 uM, cell line HepG2-A16-CD81EGFP
test conditions: human, HepG2-A16-CD81EGFP cells; read-out: INHIBITION
For each record, write down the corresponding cytotoxicity at 10 µM.
The reply should contain only the number, in %.

Notebook: CN(C)C1CC2(CCN(C(=O)NC3CC3)CC2)c2ccccc21 (stereo unspecified) , cytotoxicity at 10 µM read as -112

The value of cytotoxicity at 10 µM measured for the compound Cc1ccc(CC(=O)N2CCC(Nc3cccnn3)CC2)s1 turned out to be -7.01

Looking up COC(=O)c1cccc(-c2nc(CC3CCN(C)CC3)no2)c1 , I see its cytotoxicity at 10 µM listed as -1.6

Consider CS(=O)(=O)CCCSCc1ccc(Br)c(F)c1 . Its measured cytotoxicity at 10 µM is 4.64

Entry Cc1cc(CN2CCN(C(=O)CCCc3nc(C(C)C)no3)CC2)on1 — recorded cytotoxicity at 10 µM = -9.05

Documented cytotoxicity at 10 µM of Cc1cnn(CC(C)NCc2cc(=O)n3cc(C)ccc3n2)c1 (stereo unspecified) : 3.89

###

Give measured cytotoxicity at 10 µM for each item. Keep answers brief.
protocol: Toxicity liver stage against HepG2, at 10uM
Type: cell-based
Set-up: test concentration 10 uM, cell line HepG2-A16-CD81EGFP
test conditions: human, HepG2-A16-CD81EGFP cells; read-out: INHIBITION
The reply should contain only the number, in %.

Given item CCn1nc(C)c2ncnc(NCCn3cccn3)c21 , the value recorded as its cytotoxicity at 10 µM is 7.73

Entry under test: CCN1CCCC(c2c(-c3ccccc3)ncn2CCc2c[nH]cn2)C1 (centres undefined) . Its cytotoxicity at 10 µM was -10.9

cytotoxicity at 10 µM in this record for O=C(c1cc(-n2cccn2)ccn1)N1CCOc2ncccc21 : -0.554

So, COCCNC(=O)CCNC(=O)c1ccc(N2CCC(C)=N2)cc1 ? Its cytotoxicity at 10 µM was 2.07

For this compound ( O=C(c1ccncn1)N1CCC[C@]2(C[C@H](Oc3ncccc3F)CO2)C1 ), measured cytotoxicity at 10 µM is -0.588

# compound COCCCNC(=O)CN(C)C1CCCN(c2cccnn2)C1 (centres undefined) ; its cytotoxicity at 10 µM = -2.51

cytotoxicity at 10 µM reported for this compound COCc1noc(-c2ccc(N3CCCC3c3ccc(F)cc3)nc2)n1 (centres undefined) : 5.79

Looking up Cc1nn(C)c(C)c1C1CCCN1Cc1cccc(C(=O)N(C)C)c1 (centres undefined) , I found its cytotoxicity at 10 µM recorded as -11.9

For record CCNC(=O)C(C)NC(=O)c1cnc(-c2ccc(C)cc2C)s1 (centres undefined) the listed cytotoxicity at 10 µM is -18.7

// cytotoxicity at 10 µM lookup, compound = Cc1nc(CNC(=O)NC(C)c2ccc3c(c2)OCCO3)cs1 (centres undefined) , result: -2.61

# cytotoxicity at 10 µM of Cc1cc(-n2cncn2)n2ncnc2n1 = -4.05

Form: compound = O=C(NCc1ccc2c(c1)CCCO2)C1CNCCO1 (centres undefined) ; cytotoxicity at 10 µM = -7.49

Entry CCC(CC)c1nnc(NC(=O)NC(C)Cn2cccn2)s1 (centres undefined) ; cytotoxicity at 10 µM = 3.91

For reference, reported cytotoxicity at 10 µM for Cc1cnc(NCCc2c[nH]cn2)nc1-c1ccnn1C stands at -2.53

// recorded cytotoxicity at 10 µM for O=C(Cc1ccccc1)NCCNS(=O)(=O)C1CCCCC1 : -1.95

Sure, the documented cytotoxicity at 10 µM for Cn1cc(CN2CC[C@H]3[C@H]2CC(=O)N3Cc2ccncc2)cn1 is -5.87

Summary for this compound, CC(C)Oc1cc(N2CCC(C(N)=O)CC2)nc(N)n1 : cytotoxicity at 10 µM is 2.96

// sample CC(C)c1ocnc1C(=O)N1CCCC(c2ccn[nH]2)C1 (centres undefined) , its cytotoxicity at 10 µM was -3.92

Cc1cc(N2CCC3(CCC(=O)N(CCO)C3)CC2)nc(N(C)C)n1 has a reported cytotoxicity at 10 µM of -4.78

What the record says about CCCNc1c(NC(=O)NCCCOC)c(=O)oc2ccccc12 : cytotoxicity at 10 µM is -4.52

cytotoxicity at 10 µM reading for CC(C)NC(=O)N1CCC2(COCc3cnc(N4CCOCC4)nc32)C1 (centres undefined) : -8.75

Looking up CNC(=O)c1sccc1N(C)S(=O)(=O)c1ccc(Cl)cc1 , I found its cytotoxicity at 10 µM recorded as 14.7

In plain terms, Cc1cc(=O)[nH]c(-n2nc(C)c(CCC(=O)Nc3nc(C)cs3)c2C)n1 has a documented cytotoxicity at 10 µM of 5.61

Entry COCCSc1ccc(C(C)NC(=O)Nc2cccnc2)cc1 (centres undefined) — recorded cytotoxicity at 10 µM = 12.3

###

protocol: Toxicity liver stage against HepG2, at 10uM
Assay type: cell-based
Design: test concentration 10 uM, cell line HepG2-A16-CD81EGFP
test conditions: human, HepG2-A16-CD81EGFP cells; read-out: INHIBITION
parameter: cytotoxicity at 10 µM (%)
# value in %; strip the unit string

Looking up Cc1ccc(C(=O)N2CC[C@@H](N(C)C)[C@@H]2Cc2cnn(C)c2)cn1 , I found its cytotoxicity at 10 µM recorded as -73.4

Entry Cc1nc2c(C(=O)N[C@H]3C[C@H]4CN(C)CCN4C3)cccc2[nH]1 ; cytotoxicity at 10 µM = -7.98

Summary for this compound, CN1CCCn2c(nc(CNC(=O)c3ccsc3)cc2=O)C1 : cytotoxicity at 10 µM is 3.09

Form field cytotoxicity at 10 µM, entry O=C(NCCSC1CCCC1)c1cc(C2CC2)on1 : 0.459

The compound identified as CN(C)c1nccc(N2CCO[C@H]3CN(CC4CCOCC4)C[C@H]32)n1 registered its cytotoxicity at 10 µM at -7.21

Recorded result, O=C(c1ccc(CNC2CCSC2)cc1)N1CCCC1 (stereo not drawn) , cytotoxicity at 10 µM: -4.05

Per the record, Cc1cc(NCc2cccnc2)n2nc(C)cc2n1 has cytotoxicity at 10 µM of -0.719

Measured cytotoxicity at 10 µM, O=C(NCCNc1ccc(C(F)(F)F)cn1)c1ccoc1 : -2

Recorded cytotoxicity at 10 µM (compound CN(CC(=O)Nc1cc(C(C)(C)C)n[nH]1)S(C)(=O)=O ): 5.15

Given item O=C(CCCNCc1ccccc1)N1CCCn2cncc2C1 , the value recorded as its cytotoxicity at 10 µM is -3.32

Looking up O=C(NCc1ccco1)C1CCCN1Cc1nc(-c2ccco2)no1 (stereo not drawn) , I see its cytotoxicity at 10 µM listed as -6.46

What the record says about CN1[C@@H](c2ccccc2)[C@@H](C(=O)NCC2CCOCC2)C[C@@]1(C)C(=O)O : cytotoxicity at 10 µM is -40.4

So for CN(CC(=O)N1CCC(Oc2ccc(C(F)(F)F)cn2)CC1)S(C)(=O)=O , the logged cytotoxicity at 10 µM turned out to be 1.97

Data point: CC(=O)N1CC(C)CN(C(=O)c2cscn2)c2ccccc21 (stereo not drawn) ; cytotoxicity at 10 µM = 1.98

Per the records, this compound ( CCCn1nccc1NC(=O)CN1CCn2c(nnc2C2CC2)C1 ) has cytotoxicity at 10 µM equal to -8

Memo: CC(C)(NC(=O)c1coc(COc2cccc(F)c2)n1)C(N)=O , reported cytotoxicity at 10 µM: -136

The compound listed as CCN(CC)CCC(=O)N1CCc2c(nc(N(C)C)nc2N(C)C)C1 has a reported cytotoxicity at 10 µM of -14.4

Recorded result, Cc1cc(C)n(CC2CN(CC(=O)NC3CCCC3)CCO2)n1 (stereo not drawn) , cytotoxicity at 10 µM: -4.41

// field: cytotoxicity at 10 µM; key: Cc1nc(CNC(=O)[C@@H]2CCCN2C(=O)OC(C)(C)C)cs1 ; value = -0.602

Recorded result, O=C1C[C@H]2[C@@H](CCN2Cc2ccccn2)N1Cc1cccnc1 , cytotoxicity at 10 µM: 4.88

For record CN(Cc1cccnc1)CC1CN(C(N)=O)Cc2nccn2C1 (stereo not drawn) the listed cytotoxicity at 10 µM is -80.3

Looking up N#Cc1ccc(NCC(O)c2ccco2)c(C(F)(F)F)c1 (stereo not drawn) , I found its cytotoxicity at 10 µM recorded as -31.7

Input COc1ccccc1N1CCN(C(=O)Cn2nccc2C)CC1(C)C . Output cytotoxicity at 10 µM: 11.8

Data provenance: ChEMBL document CHEMBL4513216
